Each entry below lists one item and its recorded LC50 value.
# System: Artemia salina
# PROTOCOL DETAILS: Toxicity against Artemia salina (brine shrimp)
# Type: functional

Example results:
COc1c(-c2ccc(O)c(O)c2)oc2cc(O)cc(O)c2c1=O [3-O-METHYLQUERCETIN] | 10 µg/mL
COc1cc(-c2oc3cc(O)cc(O)c3c(=O)c2OC)ccc1O [3,3'-O-DIMETHYLQUERCETIN] | ≤ 10 µg/mL
CC(=O)OC/C=C(/CC[C@@]1(C)[C@H](C)CC[C@@]2(CO)C(COC(C)=O)=CCC[C@@H]21)COC(C)=O | > 100 µg/mL

Here is another compound to look at.
Ask | Any idea what LC50 was measured for C=C1CC[C@@H]2[C@H]([C@H]3[C@H]1CC[C@]3(C)O)C2(C)C [SPATHULENOL] ?
Reply | < 3 µg/mL

====

Each entry below lists one item and its recorded LC50 value.
# System: Artemia salina
# PROTOCOL DETAILS: Toxicity against Artemia salina (brine shrimp)
# Assay type: functional
// note: answer is a bare numeric in µg/mL

Example results:
CC1(C)CC[C@]2(CO)CC[C@]3(C)C(=CC[C@@H]4[C@@]5(C)CC[C@H](O)C(C)(C)[C@@H]5CC[C@]43C)[C@@H]2C1 | 50
CCCC#CC#C/C=C/C(=O)OC | 5
CC1(C)CC[C@]2(C(=O)O)CC[C@]3(C)C(=CC[C@@H]4[C@@]5(C)C[C@@H](O)[C@H](O)C(C)(C)[C@@H]5CC[C@]43C)[C@@H]2C1 | 20.2

Here is another compound to look at.
Ask | Any idea what LC50 was measured for CC1(C)CC[C@]2(C(=O)O)CC[C@]3(C)C(=CC[C@@H]4[C@@]5(C)CC[C@H](O)C(C)(C)[C@@H]5CC[C@]43C)[C@@H]2C1 ?
Reply | 10

====

Each entry below lists one item and its recorded LC50 value.
# Tested on: Artemia salina
# PROTOCOL DETAILS: Toxicity against Artemia salina (brine shrimp)
# Format: functional

Ask | Any idea what LC50 was measured for COc1c(-c2ccc(O)cc2)oc2cc(O)cc(O)c2c1=O [ISOKAEMPFERIDE] ?
Reply | ≤ 10 µg/mL

Ask | Any idea what LC50 was measured for C=C(COC(C)=O)C1Cc2cc(O)c(C(C)=O)cc2O1 (centres undefined) [ACETYLATED DIHYDROBENZOFURAN] ?
Reply | ≤ 10 µg/mL

Ask | Any idea what LC50 was measured for COC(=O)/C=C/c1ccc2c(c1)C=CC(C)(C)O2 ?
Reply | < 3 µg/mL

Ask | Any idea what LC50 was measured for CC(=O)Oc1ccc(/C=C/C(=O)O)cc1CC=C(C)C ?
Reply | < 50 µg/mL
